Target: T1, His-tagged ECD of human 4-1BB (human, UniProt Q07011 24-184)
T1 construct: also called hu4-1BB; 4-1BB ECD; not shown: His tag
Test: SPR (Biacore), captured antibody, His-tagged ECD analyte
Method: The binding kinetics of the 4-1BB antibodies for target proteins were determined by using a Biacore T200 surface plasmon resonance system (BlAcore, GE Healthcare, Piscataway, N.J.). […]
# pKd listing for each entry below
Entry type: numeric. Quantity: pKd, the -log10 of concentration in molar units.

Record excerpt, results attached:
-- ask Hello, please tell me recorded pKd for this one: hu106-7-hIgG4 (antibody, V domains shown, Human IgG4 constant region with the S228P mutation; also called hu106.1y.3x) VH: EVQLVESGGGLVQPGGSLRLSCAASGYTFTSYYIYWVRQAPGKGLEWIGNIWPGNGGTFYGEKFMGRATFSADTSKNTAYLQMNSLRAEDTAVYYCARRPDYSGDDYFDYWGQGTLVTVSS VL: SVELTQPPSVSVSPGQTARITCKLNSGNIGSYYVHWYQQKPGQAPVTMIYRDDKRPDGIPERFSGSSDSSSNSAFLTISGVQAEDEADYYCHSYDSTITPVFGGGTKLTVL
-- reply 6.38

-- ask Hello, please tell me recorded pKd for this one: hu106-4-hIgG4 (antibody, V domains shown, Human IgG4 constant region with the S228P mutation; also called hu106.1x.3x) VH: EVQLVQSGAEVKKPGSSVKVSCKASGYTFTSYYIYWVRQAPGQGLEWIGNIWPGNGGTFYGEKFMGRATFTADTSTSTAYMELSSLRSEDTAVYYCARRPDYSGDDYFDYWGQGTLVTVSS VL: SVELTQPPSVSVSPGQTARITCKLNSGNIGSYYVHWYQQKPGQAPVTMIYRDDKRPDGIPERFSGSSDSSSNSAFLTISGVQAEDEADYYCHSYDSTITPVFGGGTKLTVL
-- reply 6.70

-- ask Hello, please tell me recorded pKd for this one: 20H4.9-hIgG4 (antibody, V domains shown) VH: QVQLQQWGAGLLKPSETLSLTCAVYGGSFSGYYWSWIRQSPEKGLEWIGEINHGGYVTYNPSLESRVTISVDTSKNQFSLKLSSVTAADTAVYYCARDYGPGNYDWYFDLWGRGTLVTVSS VL: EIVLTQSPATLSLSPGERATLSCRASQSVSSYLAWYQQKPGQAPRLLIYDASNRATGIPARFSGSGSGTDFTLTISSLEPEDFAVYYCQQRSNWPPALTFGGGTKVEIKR
-- reply 8.31

Then this binder:
-- ask Hello, please tell me recorded pKd for this one: hu107-3-hIgG4 (antibody, V domains shown, Human IgG4 constant region with the S228P mutation; also called hu107.1x.1y) VH: EVQLVQSGAEVKKPGSSVKVSCKASDYTFNDYWVSWVRQAPGQGLEWIGEIYPNSGATNFNGKFRGRATLTVDNSASTAYMELSSLRSEDTAVYYCTREYTRDWFAYWGQGTLVTVSS VL: DVQLTQSPSSLSASVGDRVTITCRSSQSLLDSDGNTYLYWFQQKPGKAPKRLIYLVSNLGSGVPSRFSGSGSGTDFTLTISSLQPEDFATYYCMQPTHAPYTFGQGTKVEIK
-- reply 9.09
